assay-target: Human plasma kallikrein (Homo sapiens (Human))
protocol: Plasma Kallikrein Assay
experimental-parameters: purified Human plasma kallikrein 0.5 nM, substrate Acetyl-K-P-R-AFC, pH 7.4; read-out: PKal IC50
Would you mind telling me the reported pIC50 of each entry?
Remember, pIC50 is on a log scale: it is -log10 of the molar concentration.

What does the data say about its pIC50? Entry: O=C1Nc2ccc(Cl)c(F)c2[C@]2(CCN(c3cncc(C(=O)NCc4ccc(N5CC6CC6C5)nc4)n3)C2)O1 (some centres unmarked) [Example 40]
7.73

What does the data say about its pIC50? Entry: CN1CCN(c2ccc(CNC(=O)c3cncc(N4CC[C@]5(C4)OC(=O)Nc4ccc(Cl)c(F)c45)n3)cn2)CC1 [Example 43]
8.77

What does the data say about its pIC50? Entry: O=C1Nc2ccc(Cl)c(F)c2[C@]2(CCN(c3cc(C(=O)NCc4ccc(Cn5ccccc5=O)cc4)ccn3)C2)O1 [Example 16]
7.30

What does the data say about its pIC50? Entry: O=C1Nc2ccc(Cl)c(F)c2[C@]2(CCN(c3cncc(C(=O)NCc4ccc5ccc(=O)oc5c4)n3)C2)O1 [Example 30]
7.68

What does the data say about its pIC50? Entry: CN1CCCC1c1ccc(CNC(=O)c2cnnc(N3CC[C@]4(C3)OC(=O)Nc3ccc(Cl)c(F)c34)c2)cc1 (stereo in doubt) [Example 10]
8.60

What does the data say about its pIC50? Entry: O=C1Nc2ccc(Cl)c(F)c2[C@]2(CCN(c3cncc(C(=O)NCc4ccc5c(n4)NCCC5)n3)C2)O1 [Example 31]
8.07

What does the data say about its pIC50? Entry: CN1CCN(c2ccc(CNC(=O)c3cnnc(N4CC[C@]5(C4)OC(=O)Nc4ccc(Cl)c(F)c45)c3)cn2)CC1 [Example 28]
8.72

What does the data say about its pIC50? Entry: N#CC1(F)CN(Cc2ccc(CNC(=O)c3cnnc(N4CC[C@]5(C4)OC(=O)Nc4ccc(Cl)c(F)c45)c3)cc2)C1 [Example 50]
7.58

What does the data say about its pIC50? Entry: O=C1Nc2ccc(Cl)c(F)c2[C@]2(CCN(c3cncc(C(=O)NCc4ccc(N5CCCC5)nc4)n3)C2)O1 [Example 2]
8.17

What does the data say about its pIC50? Entry: Nc1nccc2cc(CNC(=O)c3cncc(N4CC[C@]5(C4)OC(=O)Nc4ccc(Cl)c(F)c45)n3)ccc12 [Example 32]
7.72

What does the data say about its pIC50? Entry: CCC(NCc1ccc(CNC(=O)c2cnnc(N3CC[C@]4(C3)OC(=O)Nc3ccc(Cl)c(F)c34)c2)cc1)C(F)(F)F (some centres unmarked) [Example 46]
7.42

What does the data say about its pIC50? Entry: O=C1Nc2ccc(Cl)c(F)c2[C@]2(CCN(c3cncc(C(=O)NCc4ccc(Cn5ccccc5=O)nc4)c3)C2)O1 [Example 15]
9.22

What does the data say about its pIC50? Entry: O=C1Nc2ccc(Cl)c(F)c2[C@]2(CCN(c3cc(C(=O)NCc4ccc(N5CCOCC5)nc4)cnn3)C2)O1 [Example 29]
8.30

What does the data say about its pIC50? Entry: O=C1Nc2ccc(Cl)c(F)c2[C@]2(CCN(c3cncc(C(=O)NCc4ccc(N5CC(O)(C(F)(F)F)C5)nc4)n3)C2)O1 [Example 36]
7.36

###

Would you mind telling me the reported IC50 of each entry?
assay-target: Human plasma kallikrein (Homo sapiens (Human), UniProt P03952)
Sequence (P03952 391-638 limits assumed): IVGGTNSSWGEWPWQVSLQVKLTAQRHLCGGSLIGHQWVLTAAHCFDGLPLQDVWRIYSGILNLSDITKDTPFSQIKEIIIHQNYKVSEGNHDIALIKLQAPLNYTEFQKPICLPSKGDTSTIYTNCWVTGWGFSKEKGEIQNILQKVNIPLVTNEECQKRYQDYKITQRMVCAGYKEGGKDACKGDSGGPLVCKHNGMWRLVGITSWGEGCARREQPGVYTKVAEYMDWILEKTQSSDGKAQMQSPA
Sequence (P03952 20-390 partner limits assumed): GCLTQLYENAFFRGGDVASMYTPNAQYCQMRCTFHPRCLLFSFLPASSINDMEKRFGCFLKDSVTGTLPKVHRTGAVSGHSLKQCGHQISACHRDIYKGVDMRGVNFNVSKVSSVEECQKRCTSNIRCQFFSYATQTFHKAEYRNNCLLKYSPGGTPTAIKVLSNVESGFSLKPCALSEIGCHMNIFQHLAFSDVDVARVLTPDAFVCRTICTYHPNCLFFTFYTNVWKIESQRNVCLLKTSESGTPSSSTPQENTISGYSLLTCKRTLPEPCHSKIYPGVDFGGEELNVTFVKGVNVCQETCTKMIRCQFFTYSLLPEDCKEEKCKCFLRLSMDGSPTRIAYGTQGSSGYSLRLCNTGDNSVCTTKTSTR
protocol: Plasma Kallikrein Assay
experimental-parameters: purified Human plasma kallikrein 0.5 nM, substrate Acetyl-K-P-R-AFC, pH 7.4; read-out: PKal IC50
Quick reminder: number only, in nM, skip the unit.

What does the data say about its IC50? Entry: O=C1Nc2ccc(Cl)c(F)c2[C@]2(CCN(c3cncc(C(=O)NCc4ccc(N5CC[C@H](F)C5)nc4)n3)C2)O1
35.8

What does the data say about its IC50? Entry: O=C1Nc2ccc(Cl)c(F)c2[C@]2(CCN(c3cncc(C(=O)NCc4ccc(N5CC[C@@H](F)C5)nc4)n3)C2)O1
25.8

What does the data say about its IC50? Entry: CCC(F)(F)NCc1ccc(CNC(=O)c2cnnc(N3CC[C@]4(C3)OC(=O)Nc3ccc(Cl)c(F)c34)c2)cc1
58.3

What does the data say about its IC50? Entry: N#CCCN(Cc1ccc(CNC(=O)c2cnnc(N3CC[C@]4(C3)OC(=O)Nc3ccc(Cl)c(F)c34)c2)cc1)C1CC1
8.9

What does the data say about its IC50? Entry: CC(C)N(C)Cc1ccc(CNC(=O)c2cnnc(N3CC[C@]4(C3)OC(=O)Nc3ccc(Cl)c(F)c34)c2)cc1
5.9

What does the data say about its IC50? Entry: COCC1CN(c2ccc(CNC(=O)c3cncc(N4CC[C@]5(C4)OC(=O)Nc4ccc(Cl)c(F)c45)n3)cn2)C1
5.4

What does the data say about its IC50? Entry: Cc1cnn(Cc2ccc(CNC(=O)c3ccnc(N4CC[C@]5(C4)OC(=O)Nc4ccc(Cl)c(F)c45)n3)cc2)c1
13.6

What does the data say about its IC50? Entry: C[C@H]1CCN(c2ccc(CNC(=O)c3cnnc(N4CC[C@]5(C4)OC(=O)Nc4ccc(Cl)c(F)c45)c3)cn2)C1
1.2

What does the data say about its IC50? Entry: O=C1Nc2ccc(Cl)c(F)c2[C@]2(CCN(c3cc(C(=O)NCc4ccc(N5CCC(F)(F)C5)c(F)c4)cnn3)C2)O1
33.5

###

assay-target: Human plasma kallikrein (Homo sapiens (Human), UniProt P03952)
protocol: Plasma Kallikrein Assay
experimental-parameters: purified Human plasma kallikrein 0.5 nM, substrate Acetyl-K-P-R-AFC, pH 7.4; read-out: PKal IC50
Protocol: The effectiveness of a compound of the present invention as an inhibitor of plasma kallikrein can be determined using a relevant purified serine protease, and an appropriate synthetic substrate. The rate of hydrolysis of the chromogenic or fluorogenic substrate by the relevant serine protease was measured both in the absence and presence of compounds of the present invention. […] A decrease in the rate of fluorescence change in the presence of inhibitor is indicative of enzyme inhibition. […]
pIC50: −log10 of the molar value.
We use 8 as the dividing line for pIC50: on or above the line is T, below is F.

hey, is pIC50 for this one >= 8? CN1CC(F)(F)C[C@H]1c1ccc(CNC(=O)c2cnnc(N3CCC4(C3)OC(=O)Nc3ccc(Cl)c(F)c34)c2)cc1 (stereo partly shown) [Example 12]
F

hey, is pIC50 for this one >= 8? CN1CCCC1c1ccc(CNC(=O)c2cnnc(N3CC[C@]4(C3)OC(=O)Nc3ccc(Cl)c(F)c34)c2)cn1 (stereo in doubt) [Example 11]
T

hey, is pIC50 for this one >= 8? Cc1cnn(Cc2ccc(CNC(=O)c3cncc(N4CC[C@]5(C4)OC(=O)Nc4ccc(Cl)c(F)c45)c3)cn2)c1 [Example 20]
T

hey, is pIC50 for this one >= 8? Cc1cnn(Cc2ccc(CNC(=O)c3cncc(N4CC[C@]5(C4)OC(=O)Nc4ccc(Cl)c(F)c45)c3)cc2)c1 [Example 26]
T

hey, is pIC50 for this one >= 8? O=C1Nc2ccc(Cl)c(F)c2[C@]2(CCN(c3cc(C(=O)NCc4ccc(N5CCC(F)(F)C5)nc4)cnn3)C2)O1 [Example 6]
T

###

assay-target: Human plasma kallikrein (Homo sapiens (Human), UniProt P03952)
protocol: Plasma Kallikrein Assay
experimental-parameters: purified Human plasma kallikrein 0.5 nM, substrate Acetyl-K-P-R-AFC, pH 7.4; read-out: PKal IC50
Protocol: The effectiveness of a compound of the present invention as an inhibitor of plasma kallikrein can be determined using a relevant purified serine protease, and an appropriate synthetic substrate. The rate of hydrolysis of the chromogenic or fluorogenic substrate by the relevant serine protease was measured both in the absence and presence of compounds of the present invention. […] A decrease in the rate of fluorescence change in the presence of inhibitor is indicative of enzyme inhibition. […]
pIC50: −log10 of the molar value.
We use 8 as the dividing line for pIC50: on or above the line is class 1, below is class 0.

hey, is pIC50 for this one >= 8? CN1CC(F)(F)CC1c1ccc(CNC(=O)c2cnnc(N3CC[C@]4(C3)OC(=O)Nc3ccc(Cl)c(F)c34)c2)cn1 (stereo in doubt)
class 0

hey, is pIC50 for this one >= 8? O=C1Nc2ccc(Cl)c(F)c2[C@]2(CCN(c3cncc(C(=O)NCc4ccc(N5CC(F)C5)nc4)n3)C2)O1
class 0

hey, is pIC50 for this one >= 8? Cc1cnn(Cc2ccc(CNC(=O)c3cncc(N4CC[C@]5(C4)OC(=O)Nc4ccc(Cl)c(F)c45)n3)cn2)c1
class 1

###

measured-endpoint: IC50 (µM)
Quick reminder: number only, in µM, skip the unit.

Given the entry O=C1Nc2ccc(Cl)c(F)c2[C@]2(CCN(c3cc(C(=O)NCc4ccc(N5CC[C@H](F)C5)nc4)cnn3)C2)O1 , what IC50 was observed with Coagulation factor XIa (Homo sapiens (Human), UniProt P03951)?
5.65

Given the entry CN1CCCC1c1ccc(CNC(=O)c2cnnc(N3CC[C@]4(C3)OC(=O)Nc3ccc(Cl)c(F)c34)c2)cc1 (stereo in doubt) , what IC50 was observed with Coagulation factor XIa (Homo sapiens (Human), UniProt P03951)?
10

Given the entry O=C1Nc2ccc(Cl)c(F)c2[C@]2(CCN(c3cc(C(=O)NCc4ccc(Cn5ccccc5=O)cc4)ccn3)C2)O1 , what IC50 was observed with Coagulation factor XIa (Homo sapiens (Human), UniProt P03951)?
10

Each recorded value in this set is attributed to patent US20240190892A1.
